assay: plasma and brain unbound fractions of I-1 in nonhuman primates; assay type: in vitro ADME; settings: nonhuman primate; Normal NHP (n = 3), plasma; read-out: Plasma Unbound Fraction
experimentalEndpoint: fraction unbound

// fraction unbound lookup, key: CSc1nc(N)c2ncn([C@H]3C(O)C(O)[C@]4(CO)C[C@H]34)c2n1 (stereo in doubt)
0.26
